Let's look at some compounds and their measured logD.
assay: physchem; details: octanol/phosphate buffer, pH 7.4
Description: Partition coefficient value in octanol and phosphate buffer (log P) at pH of 7.4 was determined.

{"Mol": "COC(=O)[C@H](Cc1ccc(OC(C)=O)c(OC(C)=O)c1)NC(=O)N[C@@H](Cc1ccc(OC(C)=O)c(OC(C)=O)c1)C(=O)OC", "logD": 1.04}
{"Mol": "COC(=O)[C@H](Cc1ccc(OC(C)=O)c(OC(C)=O)c1)NC(=O)CCCC(=O)N[C@@H](Cc1ccc(OC(C)=O)c(OC(C)=O)c1)C(=O)OC", "logD": 0.87}
{"Mol": "COC(=O)[C@H](Cc1ccc(OC(C)=O)c(OC(C)=O)c1)NC(=O)CCCCC(=O)N[C@@H](Cc1ccc(OC(C)=O)c(OC(C)=O)c1)C(=O)OC", "logD": 0.92}
{"Mol": "COC(=O)[C@H](Cc1ccc(OC(C)=O)c(OC(C)=O)c1)NC(=O)CCC(=O)N[C@@H](Cc1ccc(OC(C)=O)c(OC(C)=O)c1)C(=O)OC", "logD": 0.85}
{"Mol": "COC(=O)[C@H](Cc1ccc(OC(C)=O)c(OC(C)=O)c1)NC(=O)C(=O)N[C@@H](Cc1ccc(OC(C)=O)c(OC(C)=O)c1)C(=O)OC", "logD": 0.73}
